- ASSAYED TARGET: T1, full length human CD19 expressed on mouse preB cell line 300.19 (300.19-hsCD19FL) (human, UniProt P15391 20-556)
- T1 construct: whole, on cells; also called hCD19; 300.CD19
- T1 sequence (looked up): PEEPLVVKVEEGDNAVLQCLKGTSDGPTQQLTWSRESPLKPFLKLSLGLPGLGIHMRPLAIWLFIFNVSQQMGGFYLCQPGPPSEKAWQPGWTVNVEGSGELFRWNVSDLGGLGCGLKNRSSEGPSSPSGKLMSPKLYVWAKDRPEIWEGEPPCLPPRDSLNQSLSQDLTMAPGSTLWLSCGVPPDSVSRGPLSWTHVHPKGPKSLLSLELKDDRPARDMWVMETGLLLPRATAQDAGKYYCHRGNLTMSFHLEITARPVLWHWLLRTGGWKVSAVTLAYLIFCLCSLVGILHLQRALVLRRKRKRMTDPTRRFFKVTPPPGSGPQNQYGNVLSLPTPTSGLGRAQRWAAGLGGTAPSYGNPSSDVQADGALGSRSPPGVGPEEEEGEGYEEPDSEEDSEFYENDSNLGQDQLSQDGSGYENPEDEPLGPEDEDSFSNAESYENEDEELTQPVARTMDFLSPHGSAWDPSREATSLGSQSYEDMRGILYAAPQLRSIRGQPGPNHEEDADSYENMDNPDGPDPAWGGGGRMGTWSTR
- ASSAY SUMMARY: flow cytometry on mouse 300.19 cells expressing hCD19, His-tagged scFv
OUTCOME MEASURE: binding result

100796 CAR7 - Soluble scFv (scFv, Built here without the leader) scFv: QVQLQESGPGLVKPSETLSLTCTVSGVSLPDYGVSWIRQPPGKGLEWIGVIWGSETTYYSSSLKSRVTISKDNSKNQVSLKLSSVTAADTAVYYCAKHYYYGGSYAMDYWGQGTLVTVSSGGGGSGGGGSGGGGSGGGGSEIVMTQSPATLSLSPGERATLSCRASQDISKYLNWYQQKPGQAPRLLIYHTSRLHSGIPARFSGSGSGTDYTLTISSLQPEDFAVYFCQQGNTLPYTFGQGTKLEIKHHHHHHHH :: binds
